experimentalSystem: hNET transporter (Homo sapiens, UniProt P23975)
Construct: membrane preparation
Sequence (P23975 whole entry): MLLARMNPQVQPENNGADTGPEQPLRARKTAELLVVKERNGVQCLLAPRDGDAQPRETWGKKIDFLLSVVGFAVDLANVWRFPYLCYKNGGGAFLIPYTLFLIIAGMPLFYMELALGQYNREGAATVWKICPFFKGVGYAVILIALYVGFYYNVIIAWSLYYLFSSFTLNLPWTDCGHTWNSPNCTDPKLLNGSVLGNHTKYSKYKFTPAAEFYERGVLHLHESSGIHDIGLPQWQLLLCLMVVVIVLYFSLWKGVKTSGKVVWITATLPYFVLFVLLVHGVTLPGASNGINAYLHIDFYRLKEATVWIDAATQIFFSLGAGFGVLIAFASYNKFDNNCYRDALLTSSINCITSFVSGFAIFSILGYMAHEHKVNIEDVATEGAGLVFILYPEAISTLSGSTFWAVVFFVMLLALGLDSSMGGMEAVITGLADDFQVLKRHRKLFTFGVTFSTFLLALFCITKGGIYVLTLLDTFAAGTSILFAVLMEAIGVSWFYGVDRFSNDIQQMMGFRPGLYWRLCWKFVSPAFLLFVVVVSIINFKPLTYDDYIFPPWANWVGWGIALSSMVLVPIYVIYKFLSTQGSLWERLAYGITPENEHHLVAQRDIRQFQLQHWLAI
assayNotes: Human norepinephrine transporter (hNET) scintillation proximity assay, competition with [3H]-Nisoxetine
reportedConditions: membranes of HEK-293 cells expressing recombinant hNET, Cheng-Prusoff
pKi: −log10 of the molar value.
reportedProperty: pKi

Exercise: Name the reported pKi value associated with the molecule c1ccc2c(c1)CNCCC2c1ccc2[nH]ccc2c1 (stereo not shown)
Solution: ~8.00
